The values you see were collected from patent US9850283B2.

Target: Human PD-L1/PD-1 (Homo sapiens)
Construct: made in house; host or cells: HEK293T
Test: HTRF PD-1-Ig/PD-L1-His binding assay (human PD-L1)
Conditions: cluster symbol; read-out: HTRF IC50 cluster
Positions of bridges follow the written chain, without caps; N, C: chain ends. Non-standard residues stand in square brackets, D forms with d. Residues, ends and D or L forms follow the SMILES beside them. Hyp = O=C(O)[C@@H]1C[C@@H](O)CN1; NMeNle = CCCC[C@H](NC)C(=O)O; NMeA = CN[C@@H](C)C(=O)O; Dab = NCC[C@H](N)C(=O)O
measurement.type: IC50

Q: Request body: readout IC50, system Human PD-L1/PD-1 (Homo sapiens), query CCCC[C@H]1C(=O)N(C)[C@@H](CCCC)C(=O)N[C@@H](CO)C(=O)N[C@H](C(=O)NCC(N)=O)CSCC(=O)N[C@@H](Cc2ccc(O)cc2)C(=O)N(C)[C@@H](C)C(=O)N[C@@H](CCN)C(=O)N2CCC[C@H]2C(=O)N[C@@H](Cc2c[nH]cn2)C(=O)N[C@@H](CCC(=O)O)C(=O)N2C[C@H](O)C[C@H]2C(=O)N[C@@H](Cc2c[nH]c3ccccc23)C(=O)N[C@@H](CO)C(=O)N[C@@H](Cc2c[nH]c3ccccc23)C(=O)N1C [Example 5108] ({CH2CO}-Y[NMeA][Dab]PHE[Hyp]WSW[NMeNle][NMeNle]SCG-NH2; thioether N-14) . Return the value.
A: 6.76 to 30.3 nM

###

Target: LK35.2-hPD-L1 cells / PE-labeled PD-1-Ig (Homo sapiens, UniProt Q9NZQ7)
Construct: expressed in transfected cells; host or cells: LK35.2 mouse B cell line
Sequence (Q9NZQ7 19-290): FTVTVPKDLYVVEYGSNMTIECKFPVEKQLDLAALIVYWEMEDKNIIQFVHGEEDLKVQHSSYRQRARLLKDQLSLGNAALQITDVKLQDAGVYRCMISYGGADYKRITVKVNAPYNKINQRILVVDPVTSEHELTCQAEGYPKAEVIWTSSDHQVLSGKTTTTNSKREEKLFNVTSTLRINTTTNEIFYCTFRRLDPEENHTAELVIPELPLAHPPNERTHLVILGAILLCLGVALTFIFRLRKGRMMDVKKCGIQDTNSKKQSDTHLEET
Experiment: LK35.2-hPD-L1 cell binding high-content screening assay
Type: cell-based
Details: cluster symbol; cell line of CBA not given (LK35.2-hPD-L1 or 293T-hPD-L1); read-out: CBA IC50 cluster
measurement.type: IC50

Q: Request body: readout IC50, system LK35.2-hPD-L1 cells / PE-labeled PD-1-Ig (Homo sapiens, UniProt Q9NZQ7), query C=CCCCCC[C@H]1C(=O)N(C)[C@@H](CCCCCC=C)C(=O)N[C@@H](CCCNC(=N)N)C(=O)N[C@H](C(=O)NCC(N)=O)CSCC(=O)N[C@@H](Cc2ccccc2)C(=O)N(C)[C@@H](C)C(=O)N[C@@H](CC(N)=O)C(=O)N2CCC[C@H]2C(=O)N[C@@H](Cc2cnc[nH]2)C(=O)N[C@@H](CC(C)C)C(=O)N(C)CC(=O)N[C@@H](Cc2c[nH]c3ccccc23)C(=O)N[C@@H](CO)C(=O)N[C@@H](Cc2c[nH]c3ccccc23)C(=O)N1C . Return the value.
A: > 74.3 nM

###

Target: Human PD-L1/PD-1 (Homo sapiens, UniProt Q9NZQ7)
Construct: made in house; host or cells: HEK293T
Sequence (Q9NZQ7 with tags, fused parts or gaps): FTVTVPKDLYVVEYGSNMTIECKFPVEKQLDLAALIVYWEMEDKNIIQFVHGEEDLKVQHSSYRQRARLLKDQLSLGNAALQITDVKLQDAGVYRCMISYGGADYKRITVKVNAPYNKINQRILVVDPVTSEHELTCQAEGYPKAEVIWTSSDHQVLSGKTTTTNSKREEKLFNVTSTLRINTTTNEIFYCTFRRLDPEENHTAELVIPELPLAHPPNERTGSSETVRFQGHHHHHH
Experiment: HTRF PD-1-Ig/PD-L1-His binding assay (human PD-L1)
Conditions: read-out: HTRF IC50 value
Positions of bridges follow the written chain, without caps; N, C: chain ends. Non-standard residues stand in square brackets, D forms with d. Residues, ends and D or L forms follow the SMILES beside them. Bta = N[C@@H](Cc1csc2ccccc12)C(=O)O; Hyp = O=C(O)[C@@H]1C[C@@H](O)CN1; NMeNle = CCCC[C@H](NC)C(=O)O; NMeA = CN[C@@H](C)C(=O)O; Orn = NCCC[C@H](N)C(=O)O; Dap = NC[C@H](N)C(=O)O
measurement.type: pIC50
Answers are plain numbers, as −log10 of the molar value.

CCCC[C@H]1C(=O)N(C)[C@@H](CCCC)C(=O)N[C@@H](CN)C(=O)N[C@H](C(=O)NCC(N)=O)CSCC(=O)N[C@@H](Cc2ccc(O)cc2)C(=O)N(C)[C@@H](C)C(=O)N[C@@H](CC(=O)O)C(=O)N2CCC[C@H]2C(=O)N[C@@H](CN)C(=O)N[C@@H](CC(C)C)C(=O)N2C[C@H](O)C[C@H]2C(=O)N[C@@H](Cc2c[nH]c3ccccc23)C(=O)N[C@@H](CO)C(=O)N[C@@H](Cc2csc3ccccc23)C(=O)N1C [Example 1163] ({CH2CO}-Y[NMeA]DP[Dap]L[Hyp]WS[Bta][NMeNle][NMeNle][Dap]CG-NH2; thioether N-14)
8.20

Here is the next item to consider.
Q: Given the compound CCCC[C@H]1C(=O)N(C)[C@@H](CCCC)C(=O)N[C@@H](CCCN)C(=O)N[C@H](C(=O)NCC(N)=O)CSCC(=O)N[C@@H](Cc2ccc(O)cc2)C(=O)N2CCC[C@H]2C(=O)N[C@@H](CC(N)=O)C(=O)N2CCC[C@H]2C(=O)N[C@@H](Cc2cnc[nH]2)C(=O)N[C@@H](CC(C)C)C(=O)N2C[C@H](O)C[C@H]2C(=O)N[C@@H](Cc2c[nH]c3ccccc23)C(=O)N[C@@H](CO)C(=O)N[C@@H](Cc2c[nH]c3ccccc23)C(=O)N1C [Example 1173] ({CH2CO}-YPNPHL[Hyp]WSW[NMeNle][NMeNle][Orn]CG-NH2; thioether N-14) , what is its reported pIC50?
A: 8.57
